# experimental.system: LecBPAO1 (Pseudomonas aeruginosa, UniProt Q9HYN5)
# Sequence (Q9HYN5 entry or part of it): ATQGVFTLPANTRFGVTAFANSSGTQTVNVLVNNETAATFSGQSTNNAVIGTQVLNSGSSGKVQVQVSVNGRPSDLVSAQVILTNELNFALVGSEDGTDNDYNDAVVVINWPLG
# assay.notes: biochemical
# Type: binding, P. aeruginosa PAO1
# run.conditions: LecBPAO1 IC50, competitive binding assay, Fig. 3
Recorded log10 IC50 by entry
Please interpret these as log10 of IC50 where IC50 is in nM.

Examples from the recorded data:
compound | reported.value
OCC1OC(OC2C(O)C(O)OC(CO)C2O)C(O)C(O)C1O (centres unmarked) | 4.80
CC(=O)NC1C(OC2C(O)C(O)OC(CO)C2O)OC(CO)C(OC2OC(C)C(O)C(O)C2O)C1OC1OC(CO)C(O)C(O)C1OC1OC(C)C(O)C(O)C1O (centres unmarked) | 2.84
OCC1OC(OC2C(O)OC(CO)C(O)C2O)C(O)C(O)C1O (centres unmarked) | 4.93
CC(=O)NC1C(OC2C(O)C(O)OC(CO)C2O)OC(CO)C(O)C1OC1OC(CO)C(O)C(O)C1OC1OC(C)C(O)C(O)C1O (centres unmarked) | 3.36

Then there is this compound:
Recorded log10 IC50 (compound CC(=O)NC1C(OC2C(O)C(O)OC(CO)C2O)OC(CO)C(OC2OC(C)C(O)C(O)C2O)C1OC1OC(CO)C(O)C(O)C1O (centres unmarked) ): 2.23
